Test system: AGS gastric carcinoma cells [heterozygous G12D]
Assay: Cancer cell line proliferation (CellTiter-Glo), AGS
Type: cell-based
Details: Homo sapiens, 72 hr treatment, read-out: AGS CTG (EC50)
Method: The following cancer cell lines were employed: AGS gastric carcinoma [heterozygous G12D](ATCC, CRL-1739); A-427 lung carcinoma [heterozygous G12D](ATCC, HTB-53); ASPC1 pancreatic adenocarcinoma [homozygous G12D](ATCC, CRL-1682) and SW1990 pancreatic adenocarcinoma [homozygous G12D](ATCC CRL-2172). Cell lines were cultured essentially according to ATCC recommendations. […]
pEC50: −log10 of the molar value.
measured.property: pEC50

C#Cc1cccc2cc(O)cc(-c3ncc4c(N5CC6CCC(C5)N6C(=O)C(F)(F)F)nc(OCC5(CN6CCN(CC7CCN(Cc8ccc(-n9c(C(=O)NCC(F)(F)F)nnc9-c9cc(C(C)C)c(O)cc9O)cc8)CC7)CC6)CC5)nc4c3F)c12	> 7.00
C#Cc1cccc2cccc(-c3ncc4c(N5CC6CCC(C5)N6)nc(OCCN5CCN(Cc6ccc7c(c6)CN(C(=O)c6cc(C(C)C)c(O)cc6O)C7)CC5)nc4c3F)c12	6.00 to 7.00
CCNC(=O)c1nnc(-c2cc(C(C)C)c(O)cc2O)n1-c1ccc(CN2CCN(C(=O)C3CCN([C@H]4C[C@@H](COc5nc(N6CC7CCC(C6)N7)c6cnc(-c7cccc8cccc(Cl)c78)c(F)c6n5)N(C)C4)CC3)CC2)cc1	6.00 to 7.00

* * *

tested on: AGS gastric carcinoma cells [heterozygous G12D]; assay: Cancer cell line proliferation (CellTiter-Glo), AGS; type: cell-based; conditions: Homo sapiens, 72 hr treatment, read-out: AGS CTG (EC50)
pEC50: −log10 of the molar value.
Listed below: pEC50 values for each entry.
measured.property: pEC50

C#Cc1c(F)ccc2cc(O)cc(-c3nc(OC)c4c(N5CC6CCC(C5)N6)nc(OCC5(CN6CCN(CC7CCN(Cc8ccc(-n9c(C(=O)NC(C)C(F)(F)F)nnc9-c9cc(C(C)C)c(O)cc9O)cc8)CC7)CC6)CC5)nc4c3F)c12 (centres unmarked) [Compound 158]	> 7.00
CCc1cc(-c2nnc(C(=O)NCC(F)(F)F)n2-c2ccc(CN3CCN([C@H]4C[C@@H](COc5nc(N6CC7CCC(C6)N7)c6cnc(-c7cccc(F)c7C)c(F)c6n5)N(C)C4)CC3)cc2)c(O)cc1O [Compound 79]	6.00 to 7.00

* * *

system: AGS gastric carcinoma cells [heterozygous G12D]; assay: Cancer cell line proliferation (CellTiter-Glo), AGS; type: cell-based; conditions: Homo sapiens, 72 hr treatment, read-out: AGS CTG (EC50)
measured.property: EC50

C#Cc1cccc2cccc(-c3ncc4c(N5CC6CCC(C5)N6)nc(OC[C@@H]5CC[C@H](CN6CCN(Cc7ccc8c(c7)CN(C(=O)c7cc(C(C)C)c(O)cc7O)C8)CC6)N5C)nc4c3F)c12	100 to 1000 nM
C#Cc1c(F)ccc2cc(O)cc(-c3nc(OC)c4c(N5CC6CCC(C5)N6)nc(OC5CN(CC6(F)CN(Cc7ccc8c(c7)CN(C(=O)c7cc(C(C)C)c(O)cc7O)C8)C6)C5)nc4c3F)c12	100 to 1000 nM
C#Cc1cccc2cc(O)cc(-c3ncc4c(N5CC6CCC(C5)N6)nc(OCC5(CN6CCC(OC7CCN(Cc8ccc(-n9c(C(=O)NC(C)C(F)(F)F)nnc9-c9cc(C(C)C)c(O)cc9O)cc8)CC7)CC6)CC5)nc4c3F)c12 (stereo not shown)	< 100 nM
C#Cc1cccc2cccc(-c3ncc4c(N5CC6CCC(C5)N6)nc(OCCN5CCN(C(=O)C6CCN(Cc7ccc(-n8c(C(=O)NCC)nnc8-c8cc(C(C)C)c(O)cc8O)cc7)CC6)CC5)nc4c3F)c12	< 100 nM
CC(C)c1cc(-c2nnc(C(=O)NC(C)C(F)(F)F)n2-c2ccc(CN3CCN([C@H]4C[C@@H](COc5nc(N6CC7CCC(C6)N7)c6cnc(-c7cccc8cccc(F)c78)c(F)c6n5)N(C)C4)CC3)cc2)c(O)cc1O (stereo partly shown)	< 100 nM
CCc1cc(-c2nnc(C(=O)NCC(F)(F)F)n2-c2ccc(CN3CCN([C@H]4C[C@@H](COc5nc(N6CC7CCC(C6)N7)c6cnc(-c7ccccc7C(F)(F)F)c(F)c6n5)N(C)C4)CC3)cc2)c(O)cc1O	100 to 1000 nM
C#Cc1cccc2cc(O)cc(-c3ncc4c(N5CC6CCC(C5)N6)nc(OCC5(CN6CCN(Cc7ccc(-n8c(C(=O)NC(C)C(F)(F)F)nnc8-c8cc(C(C)C)c(O)cc8O)cc7)CC6)CC5)nc4c3F)c12 (stereo not shown)	100 to 1000 nM
CCNC(=O)c1nnc(-c2cc(C(C)C)c(O)cc2O)n1-c1ccc(CN2CCN([C@H]3C[C@@H](COc4nc(N5CC6CCC(C5)N6)c5cnc(-c6ccccc6C(F)(F)F)c(F)c5n4)N(C)C3)CC2)cc1	< 100 nM
C#Cc1cccc2cccc(-c3ncc4c(N5CC6CCC(C5)N6)nc(OCC5CC[C@H](CN6CCN(C(=O)C7CCN(Cc8ccc(-n9c(O)nnc9-c9cc(C(C)C)c(O)cc9O)cc8)CC7)CC6)N5C)nc4c3F)c12 (stereo partly shown)	< 100 nM
C#Cc1cccc2cc(O)cc(-c3ncc4c(N5CC6CCC(C5)N6)nc(OCC5(CN6CCC(N7CCN(Cc8ccc9c(c8)CN(C(=O)c8cc(C(C)C)c(O)cc8O)C9)CC7)CC6)CC5)nc4c3F)c12	< 100 nM
